Provenance of the data: PubChem BioAssay

# target.entity: Dickkopf-related protein 1 (Homo sapiens) (UniProt O94907)
# Sequence (O94907 whole entry, looked up): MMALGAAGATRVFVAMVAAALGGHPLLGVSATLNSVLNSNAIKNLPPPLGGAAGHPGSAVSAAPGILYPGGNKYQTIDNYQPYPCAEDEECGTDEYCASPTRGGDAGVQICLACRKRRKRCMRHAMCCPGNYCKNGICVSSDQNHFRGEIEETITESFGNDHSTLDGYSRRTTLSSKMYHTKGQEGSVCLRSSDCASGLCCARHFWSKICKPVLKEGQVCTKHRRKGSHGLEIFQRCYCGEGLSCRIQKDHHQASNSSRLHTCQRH
# assay.remarks: small molecules binding DKK1 protein – biochemical, small-molecule microarray, 635 nm fluorescence scan, primary screen (AID 1106);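 further: score merges emission near 667 nm with signal to noise over three replicate slides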
# run.parameters: higher = more signal
The reader will find reported composite z-score values listed item by item below.
Number, no unit, nothing else.

C=CC[C@]1(C(=O)N2CCOCC2)N=C(c2ccc(OCCCO)cc2)O[C@H]1c1ccccc1N=[N+]=[N-]    -0.201

Task: Checklist item: composite z-score tested on Dickkopf-related protein 1 (Homo sapiens) (UniProt O94907), entry O=C(O)[C@@]1(CCS(=O)(=O)c2ccccc2)N=C(c2ccc(OCCCO)cc2)O[C@H]1c1ccccc1 , value?
Output: -1.05

Task: Now give it for O=c1cccc(-c2ccccc2Cl)o1 too.
Output: 0.157

====

# assay.remarks: compound effects on multiple myeloma cell viability – MM1S, calcein-AM fluorescence, 48 h, basal, profiling panel (AID 1165);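 further: viability of MM1S multiple myeloma cells under basal unstimulated conditions; test concentration not given here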
# run.parameters: higher = more signal
So basically: z-score at -0.5 or higher? That is 1 (yes). Lower than -0.5? That is 0 (no).

Some entries whose results are on file:
COCC(=C=CC[C@@H](O)c1ccc(OCCO)cc1)C[C@@H](O)c1ccccn1    1 (yes)
[N-]=[N+]=Nc1ccccc1[C@H]1OC(c2ccc(OCCCO)cc2)=N[C@@]1(Cc1ccccc1)C(=O)N1CCOCC1    0 (no)
CCCCCN1CC=CC23O[C@@H]4C=CCOC(=O)[C@@H]4[C@H]2C(=O)N(C(C)CO)[C@@H]3C1=O (some centres not stated)    1 (yes)
O=C1OCC=C[C@H]2OC34C=CCN(CCN5CCOCC5)C(=O)[C@H]3N(CCO)C(=O)[C@@H]4[C@@H]12 (some centres not stated)    0 (no)
CCCCN1CC=CC23O[C@@H]4/C=C\CCCOC(=O)C4[C@H]2C(=O)N(CCCCCO)[C@@H]3C1=O (some centres not stated)    1 (yes)

Task: Is the recorded value of z-score equal to or greater than -0.5 for this compound? COCCOC(=O)N1C(=O)[C@@]2(c3cc(C#CC4(O)CCCCCC4)ccc31)[C@H](c1ccccc1OCCO)N1[C@H](c3ccccc3)[C@H](c3ccccc3)OC(=O)[C@H]1[C@@H]2C(=O)N1CCc2cc(OC)c(OC)cc2C1
Output: 0 (no)

====

# target.entity: E3 ubiquitin-protein ligase XIAP (Homo sapiens) (UniProt P98170)
# Sequence (P98170 whole entry, looked up): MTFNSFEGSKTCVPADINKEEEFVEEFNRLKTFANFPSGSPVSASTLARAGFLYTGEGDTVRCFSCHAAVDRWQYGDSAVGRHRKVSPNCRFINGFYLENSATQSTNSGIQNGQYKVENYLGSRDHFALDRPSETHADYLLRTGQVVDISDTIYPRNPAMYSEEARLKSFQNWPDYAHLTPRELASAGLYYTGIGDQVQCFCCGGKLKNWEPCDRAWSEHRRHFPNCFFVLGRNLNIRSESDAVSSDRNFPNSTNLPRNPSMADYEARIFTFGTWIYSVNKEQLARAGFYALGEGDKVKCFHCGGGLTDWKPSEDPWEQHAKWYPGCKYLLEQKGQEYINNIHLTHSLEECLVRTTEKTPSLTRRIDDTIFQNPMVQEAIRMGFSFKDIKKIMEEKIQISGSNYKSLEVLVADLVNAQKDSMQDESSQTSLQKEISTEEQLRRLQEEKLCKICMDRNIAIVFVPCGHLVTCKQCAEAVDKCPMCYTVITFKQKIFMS
# assay.remarks: small molecules binding XIAP protein – biophysical, small-molecule microarray, fluorescence 635 nm, primary screen (AID 1181);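 further: score merges 667 nm emission and signal to noise over triplicate slides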
# run.parameters: higher = more signal
readout: composite z-score
Number, no unit, nothing else.

Worked examples, 7 compounds total:
[N-]=[N+]=Nc1ccccc1C[C@]1(C(=O)NCC(O)CO)N=C(c2ccc(OCCCO)cc2)O[C@H]1c1ccccc1 (stereo partly drawn)    -0.0525
CC(C)[C@@H](C(=O)O)n1cc(C2(O)CCCCC2)nn1    0.0077
CC[C@@H]1C=C(C(=O)O)[C@H](c2ccc(C)cc2)N1S(=O)(=O)c1ccc(C)cc1    0.0701
C=C(CCCC)/C(=C/C[C@H](OC(=O)c1ccncc1)c1ccc(OCCO)cc1)c1cc(C(=O)OC)ccc1OC    0.22
CC1CC/C=C\[C@H]2OC34C=CCN(c5ccc6ccccc6c5)C(=O)[C@H]3N(CCO)C(=O)[C@@H]4C2C(=O)O1 (stereo partly drawn)    0.0728
[N-]=[N+]=Nc1ccccc1[C@H]1OC(c2ccc(OCCCO)cc2)=N[C@@]1(CCS(=O)(=O)c1ccccc1)C(=O)NCc1ccccc1    0.0623
O=C1C2C=CC(C(O)C=Cc3ccc([N+](=O)[O-])cc3)N(n3cnnc3)C2C(=O)N1Cc1ccccc1 (stereo not drawn)    -0.236

Task: // lookup composite z-score for C#CCN(C/C=C/c1ccccc1)[C@H](CO)c1ccccc1
Output: -0.167

====

# Tested on: glycogen synthase kinase-3 (GSK3A per assay name; protocol says GSK3B)
# assay.remarks: compounds binding glycogen synthase kinase-3 – biochemical, small-molecule microarray, 635 nm fluorescence, GSK3A, primary screen (AID 1103); further: the record names both GSK3A and GSK3B
# run.parameters: fluorescence 635 nm, higher = more signal
readout: composite z-score
Number, no unit, nothing else.

CCOC(=O)C1=CC[C@H]2C(=O)N(c3ccccc3)C(=O)[C@@H]12    0.571

Task: // lookup composite z-score for [N-]=[N+]=Nc1ccccc1C[C@@]1(C(=O)N2CCCCC2)N=C(c2ccc(OCCCO)cc2)O[C@@H]1c1ccccc1N=[N+]=[N-]
Output: 1.05

Task: Now give it for O=C1O[C@H](c2ccccc2)[C@H](c2ccccc2)N2[C@H]1[C@@H](C(=O)N1CCN(c3ncccn3)CC1)[C@]1(C(=O)Nc3ccc(C#CC4=CCCCC4)cc31)[C@H]2c1ccccc1OCCO too.
Output: 1.3

Task: Now give it for CCOC(=O)C1=CCC(c2ccc(F)cc2)N(S(=O)(=O)c2ccc(C)cc2)C1 (centres undefined) too.
Output: 0.265

Task: Now give it for C=CCNC(=O)[C@@H]1[C@H]2C(=O)O[C@H](c3ccccc3)[C@H](c3ccccc3)N2[C@H](c2ccc(OCCO)cc2)[C@@]12C(=O)N(C(=O)OCCOC)c1ccc(C#CCNC(N)=O)cc12 too.
Output: 0.549

Task: Now give it for C#CCNCc1ccccc1 too.
Output: 0.539

Task: Now give it for [N-]=[N+]=NCc1ccccc1[C@H]1OC(c2ccc(OCCCO)cc2)=N[C@@]1(Cc1ccccc1)C(=O)N1CCCCC1 too.
Output: 1.3

Task: Now give it for COc1cc2c(cc1O)C=[N+](Cc1cc3c(cc1Br)OCO3)CC2 too.
Output: -1.06

Task: Now give it for C[N+](C)(C)CCCC[C@@H]1NC(=O)[C@H]2C[C@@H](C(=O)NCCCCCCNC(=O)CS)[C@@H](c3ccc(O)cc3)N2C1=O too.
Output: -1.09

Task: Now give it for O=C1C2C=CC(C(O)c3ccc(-c4ccccc4)s3)N(Nc3ccccc3)C2C(=O)N1c1ccccc1 (centres undefined) too.
Output: 0.808

====

# target.entity: Alpha-bungarotoxin (Bungarus multicinctus)
# assay.remarks: compounds binding labelled alpha-BTX control protein – biochemical, small-molecule microarray, Alexa647 label, 635/667 nm fluorescence, artefact control for SMM control protein annotation, profiling panel (AID 1117)
# run.parameters: alpha-BTX-A647 binding fluorescence, higher = more signal
readout: composite z-score
Number, no unit, nothing else.

Worked examples, 5 compounds total:
O=C(NC1CC1)[C@@H]1c2ccccc2C(=O)N(Cc2cc(F)cc(C(F)(F)F)c2)[C@H]1c1ccc(CO)cc1    -0.405
Cc1ccc(S(=O)(=O)N2C[C@@H](C(=O)O)[C@H](Sc3ccccc3)C[C@H]2c2ccccc2)cc1    0.729
COC(=O)[C@@]1(Cc2ccc(OC)cc2)[C@H]2c3cc(C(=O)N4CCCC4)n(CCCNc4ncc(C(F)(F)F)cc4Cl)c3C[C@H]2CN1C(=O)c1ccccc1    0.884
CS(=O)(=O)CCOC(=O)C1=CC(CCCO)=CC(c2ccc(CN3CCCC3)cc2)N(Cc2cccc(OC(F)(F)F)c2)C=C1C(=O)OCCS(C)(=O)=O (stereo not given)    0.822
C[C@H]1C2[C@H](Cc3ccccc3)NC(=O)[C@]23C(=O)NCC(=O)N2CCC[C@H]2C(=O)NC/C=C/CCC/C=C/C3[C@@H]2O[C@]12C (stereo not given in full)    -0.65

Task: // lookup composite z-score for COCCCNC(=O)[C@]1(Cc2ccccc2)N=C(c2ccc(OCCCO)cc2)O[C@@H]1c1ccccc1CN=[N+]=[N-]
Output: 0.315

Task: Now give it for O=C(O)[C@H]1C[C@H]2C(=O)N3CCC[C@H]3C(=O)N2[C@H]1c1ccc(O)cc1 too.
Output: -1.55

Task: Now give it for CCCCCCCCCCC(O)C1C=CC2C(=O)NC(=O)C2N1Nc1ccc(Cl)cc1Cl (stereo not given) too.
Output: -0.133

Task: Now give it for Cc1ccc(S[C@]2(C(=O)O)CC(=O)N(C(C)C)[C@@H]2c2ccc(CO)cc2)cc1 too.
Output: 0.644

Task: Now give it for COCCCNC(=O)[C@@H]1c2ccccc2C(=O)N(Cc2ccccc2OC)[C@H]1c1ccc(CO)cc1 too.
Output: 0.117

Task: Now give it for COc1cc2c(cc1O)C(c1cccs1)N(Cc1ccc([N+](=O)[O-])o1)CC2 (stereo not given) too.
Output: 0.766

====

# target.entity: Pro-neuregulin-1, membrane-bound isoform (Homo sapiens) (UniProt Q02297)
# Sequence (Q02297 whole entry, looked up, canonical isoform): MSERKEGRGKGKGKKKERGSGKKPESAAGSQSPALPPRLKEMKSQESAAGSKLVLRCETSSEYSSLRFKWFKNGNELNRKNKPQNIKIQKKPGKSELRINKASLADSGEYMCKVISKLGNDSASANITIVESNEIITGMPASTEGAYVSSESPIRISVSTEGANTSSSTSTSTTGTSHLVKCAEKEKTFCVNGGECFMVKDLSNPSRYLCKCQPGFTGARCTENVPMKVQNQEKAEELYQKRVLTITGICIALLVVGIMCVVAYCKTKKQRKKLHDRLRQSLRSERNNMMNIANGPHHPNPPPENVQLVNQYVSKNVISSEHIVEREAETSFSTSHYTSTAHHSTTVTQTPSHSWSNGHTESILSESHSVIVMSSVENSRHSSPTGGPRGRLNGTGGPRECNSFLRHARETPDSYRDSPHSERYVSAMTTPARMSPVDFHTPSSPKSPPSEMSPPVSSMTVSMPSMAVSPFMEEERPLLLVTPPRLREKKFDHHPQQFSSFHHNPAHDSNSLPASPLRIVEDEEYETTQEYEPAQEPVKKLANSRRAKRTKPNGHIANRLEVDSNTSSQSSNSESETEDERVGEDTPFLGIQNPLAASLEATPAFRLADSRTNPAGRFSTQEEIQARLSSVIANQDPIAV
# assay.remarks: small molecules binding neuregulin-1 protein – biochemical, small-molecule microarray, fluorescence 635/667, psychiatric disease protein project, primary screen (AID 1075);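 further: score combines 667 nm spot fluorescence with signal to noise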
# run.parameters: NRG1 binding, 635 nm fluorescence, higher = more signal
readout: composite z-score
Number, no unit, nothing else.

Worked examples, 5 compounds total:
CCCCCCc1nc(-c2ccc(-c3ccc(Cl)c(Cl)c3)o2)cc2c1[Si](C(C)C)(C(C)C)O[C@H]2c1ccccc1    0.501
O=C1O[C@@H](c2ccccc2)[C@@H](c2ccccc2)N2[C@@H](c3ccc(OCCO)cc3)[C@]3(C(=O)Nc4ccc(C#CC5=CCCCC5)cc43)[C@@H](C(=O)N3CCCCCCC3)[C@H]12    1.38
C#CCN1[C@H](/C=C/C2CC2)[C@H](Cc2ccccc2)OC(=O)[C@@H]1Cc1ccccc1    0.153
COC(=O)c1c2oc(c1C(=O)OC)C(=O)NC1(CCCCC1)c1cn(nn1)C[C@H](Cc1ccccc1)NC(=O)N[C@H](CO)CC2    1.49
C=CCC(OC(C)=O)[C@@H]1[C@@H](N(Cc2ccc(-c3ccccc3)cc2)C(=O)Cc2ccc(F)cc2)c2cc(OCCCO)ccc2N1C(=O)c1ccc2ccccc2c1 (some centres not stated)    -0.158

Task: // lookup composite z-score for NC(=O)NCC#Cc1ccc2c(c1)[C@]1(C(=O)N2)[C@H](C(=O)O)[C@H]2C(=O)O[C@H](c3ccccc3)[C@H](c3ccccc3)N2[C@@H]1c1ccc(O)cc1
Output: 0.441

Task: Now give it for NC(=O)[C@@]1(Cc2ccccc2)N=C(c2ccc(OCCCO)cc2)O[C@H]1c1ccccc1 too.
Output: 1.45
